// data source = patent US8940748B2

# experiment.summary: Caco-2 bi-directional permeability
# Type: in vitro ADME
# run.conditions: human, Caco-2; permeability apical to basolateral; read-out: Caco-2 AP→BL
property.measured: Papp A→B at 2 h (×10⁻⁶ cm/s)

Record excerpt, results attached:
Prompt line: Reported Papp A→B at 2 h, compound CN1C(=N)N[C@](C)(c2c(F)ccc(NC(=O)c3ccc(F)cn3)c2F)CS1(=O)=O : ____
Response line: 12.6

Prompt line: Reported Papp A→B at 2 h, compound CN1C(=N)N[C@](C)(c2cc(NC(=O)c3ccc(F)cn3)ccc2F)CC1=O : ____
Response line: 2.2

Prompt line: Reported Papp A→B at 2 h, compound CN1C(=N)N[C@](C)(c2cc(NC(=O)c3ccc(C(F)(F)F)cn3)ccc2F)CC1=O : ____
Response line: 1.7

A = COc1cnc(C(=O)Nc2cc(F)c(F)c([C@]3(C)CC(=O)N(C)C(=N)N3)c2)cn1 [Iminopyrimidinone 40di]
B = CC#Cc1cncc(-c2cc(Cl)c([C@]3(C)CC(=O)N(C)C(=N)N3)s2)c1 [Iminopyrimidinone 52, reference compound]
Prompt line: Lab notebook, comparison: A versus B , higher Papp A→B at 2 h goes to which? Lab note: record the label of whichever item you select.
Response line: B
